readout type: pKi
Lab note — pKi values are minus log10 of concentrations in M.

Recall the reported pKi of "O=C(Nc1nc2cc(O)c(O)cc2s1)c1ccc(C2(C(F)(F)F)N=N2)cc1" when tested on Genome polyprotein (dengue virus type 2).
Sequence (P29990 1346-1475 limits assumed): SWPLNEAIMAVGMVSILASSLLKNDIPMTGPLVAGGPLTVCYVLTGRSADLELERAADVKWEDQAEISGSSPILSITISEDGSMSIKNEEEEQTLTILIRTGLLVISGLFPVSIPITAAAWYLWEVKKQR
Sequence (P29990 1476-2093 limits assumed): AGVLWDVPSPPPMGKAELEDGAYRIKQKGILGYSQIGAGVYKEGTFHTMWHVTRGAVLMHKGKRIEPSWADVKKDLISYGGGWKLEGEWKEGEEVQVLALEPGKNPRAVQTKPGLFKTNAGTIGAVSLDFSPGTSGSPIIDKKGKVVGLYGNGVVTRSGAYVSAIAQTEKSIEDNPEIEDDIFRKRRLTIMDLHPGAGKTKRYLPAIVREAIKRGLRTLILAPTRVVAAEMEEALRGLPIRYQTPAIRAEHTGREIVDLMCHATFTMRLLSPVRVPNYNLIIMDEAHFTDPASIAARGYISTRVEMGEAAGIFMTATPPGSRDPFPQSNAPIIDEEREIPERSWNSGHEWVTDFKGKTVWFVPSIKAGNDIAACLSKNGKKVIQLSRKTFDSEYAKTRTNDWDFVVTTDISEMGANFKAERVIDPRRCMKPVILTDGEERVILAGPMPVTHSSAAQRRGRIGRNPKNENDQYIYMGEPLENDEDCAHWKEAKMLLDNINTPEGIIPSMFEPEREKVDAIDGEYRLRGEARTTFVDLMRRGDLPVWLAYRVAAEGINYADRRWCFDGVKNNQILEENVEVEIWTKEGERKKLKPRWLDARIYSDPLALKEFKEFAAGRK
5.20

* * *

readout type: IC50 (µM)
Please respond with the number in µM and leave the unit unwritten.

State IC50 on Genome polyprotein (dengue virus type 2). Entry: "CC(C)(C)SSC[C@@H](NC(=O)c1ccc(C2(C(F)(F)F)N=N2)cc1)C(=O)Nc1nc2cc(O)c(O)cc2s1"
10.2

Report IC50 on Genome polyprotein (dengue virus type 2) for this entry: "O=C(N[C@H](CS)C(=O)Nc1nc2cc(O)c(O)cc2s1)c1ccc(C2(C(F)(F)F)N=N2)cc1"
13.4

Provide measured IC50 on Genome polyprotein (dengue virus type 2) for O=C(CN(CC1CC2C=CC1C2)C(=O)c1ccc(C2(C(F)(F)F)N=N2)cc1)Nc1nc2cc(O)c(O)cc2s1 (stereo not given) please.
17

State IC50 on Genome polyprotein (dengue virus type 2). Entry: "O=C(Nc1nc2cc(O)c(O)cc2s1)c1ccc(C2(C(F)(F)F)N=N2)cc1"
9.97

Provide Genome polyprotein (dengue virus type 2) IC50 reading for CC1OCCC1SSC[C@@H](NC(=O)c1ccc(C2(C(F)(F)F)N=N2)cc1)C(=O)Nc1nc2cc(O)c(O)cc2s1 (stereo not given in full) .
20
